# System: CCRIS mutagenicity, Ames/micronucleus/aberration tests
# assayExplanation: CCRIS mutagenicity studies
# experimentalContext: Test System: AMES SALMONELLA TYPHIMURIUM; Strain/Indicator: TA98(NR); Metabolic Activation: RAT, LIVER, S-9, PCB; Method: PREINCUBATION
Active and inactive are the calls of the source. How the calls were made is not given here.
Result category, one only: 1 for active, -1 for inactive

Below, 3 molecules whose answers are already recorded.
{"columns": ["chemicalSmiles", "labelClass"],
 "data": [
  ["Nc1nc(-c2ccc([N+](=O)[O-])cc2)nc2nc[nH]c12", 1],
  ["Nc1ncnc2c1ncn2Cc1ccc([N+](=O)[O-])cc1", -1],
  ["Nc1nc(-c2ccc([N+](=O)[O-])cc2)nc2c1ncn2[C@@H]1O[C@H](CO)[C@@H](O)[C@H]1O", -1]
]}

Here is the next item to consider.
So what was the verdict on Nc1ncnc2c1ncn2-c1ccc([N+](=O)[O-])cc1[N+](=O)[O-] in this test? -1

Values were extracted from PubChem BioAssay AID1259407.
